System Tested: T1, hPDGFRb.mmh (human, UniProt P09619 33-531)
T1 construct: Soluble monomeric construct; also called soluble human PDGFR-beta.mmh
T1 sequence (P09619 other isoform, or with tags, fused parts or gaps): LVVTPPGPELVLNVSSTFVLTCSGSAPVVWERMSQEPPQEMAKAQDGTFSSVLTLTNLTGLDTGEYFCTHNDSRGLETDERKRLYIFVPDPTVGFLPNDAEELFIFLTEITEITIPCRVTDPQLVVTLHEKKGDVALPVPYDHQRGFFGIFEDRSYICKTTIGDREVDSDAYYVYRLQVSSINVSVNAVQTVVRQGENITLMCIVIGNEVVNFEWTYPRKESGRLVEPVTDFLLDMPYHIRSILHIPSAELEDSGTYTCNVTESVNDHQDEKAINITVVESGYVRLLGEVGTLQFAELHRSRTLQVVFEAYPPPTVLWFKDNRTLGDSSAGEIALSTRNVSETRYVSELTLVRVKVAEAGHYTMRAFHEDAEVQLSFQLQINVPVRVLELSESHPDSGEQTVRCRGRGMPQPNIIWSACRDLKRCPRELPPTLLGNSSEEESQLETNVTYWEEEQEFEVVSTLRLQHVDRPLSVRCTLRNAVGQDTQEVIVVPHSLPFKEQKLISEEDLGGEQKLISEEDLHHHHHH
Assay Info: SPR, mAb captured, 25 C
Outcome Measure: kon (M⁻¹ s⁻¹)
Quick note: give the figure in M⁻¹ s⁻¹, leave out the unit.

# binder H2M3368N (antibody, V domains shown, mouse Fc (H2M prefix; isotype not spelled out)) VH: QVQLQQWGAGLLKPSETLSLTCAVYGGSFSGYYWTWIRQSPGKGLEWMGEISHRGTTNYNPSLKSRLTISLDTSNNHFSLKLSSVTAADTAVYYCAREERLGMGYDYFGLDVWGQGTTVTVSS VL: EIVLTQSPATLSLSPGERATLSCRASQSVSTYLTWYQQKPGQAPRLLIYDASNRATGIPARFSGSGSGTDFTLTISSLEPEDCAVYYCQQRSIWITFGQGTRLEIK ; its kon = 46100

# binder H4H3094P (antibody, human IgG4, V domains shown, also called H4H3394P) VH: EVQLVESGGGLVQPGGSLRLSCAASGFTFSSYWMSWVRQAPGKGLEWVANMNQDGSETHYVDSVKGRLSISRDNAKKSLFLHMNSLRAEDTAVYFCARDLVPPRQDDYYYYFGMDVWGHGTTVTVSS VL: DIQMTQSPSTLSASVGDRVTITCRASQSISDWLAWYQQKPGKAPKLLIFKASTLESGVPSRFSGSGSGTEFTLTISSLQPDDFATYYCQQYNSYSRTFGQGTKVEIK ; its kon = 165000

# binder H1M3374N (antibody, V domains shown, mouse Fc format; also called H2M3374N) VH: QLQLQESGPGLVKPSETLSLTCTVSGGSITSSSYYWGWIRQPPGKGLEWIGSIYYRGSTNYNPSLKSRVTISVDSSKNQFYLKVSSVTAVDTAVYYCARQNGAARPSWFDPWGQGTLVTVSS VL: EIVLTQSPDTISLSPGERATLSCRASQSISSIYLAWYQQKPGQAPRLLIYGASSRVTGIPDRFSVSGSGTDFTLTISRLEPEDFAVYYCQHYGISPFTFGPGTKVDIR ; its kon = 167000
